- experiment: Selectivity index, ratio of CC50 for cytotoxicity against African green monkey Vero 76 cells infected with Punta Toro virus assessed as reduction in cell viability by neutral red dye based analysis to EC50 for antiviral activity against Punta Toro virus infected in African green monkey Vero 76 cells assessed as reduction in viral replication by neutral red dye based analysis
- Format: toxicity
- details: read-out: Ratio CC50/EC50
quantityKind: selectivity ratio
Number only, please.

Give the reported value of selectivity ratio for this record: `Nc1ncnn2c([C@@H]3N[C@H](CO)[C@@H](O)[C@H]3O)ccc12`
37

---

- experiment: Selectivity index, ratio of CC50 for cytotoxicity against African green monkey Vero E6 cells infected with Lymphocytic choriomeningitis virus assessed as reduction in cell viability to EC90 for antiviral activity against Lymphocytic choriomeningitis virus infected in African green monkey Vero E6 cells assessed as reduction in viral yield
- Assay type: toxicity, cell-based, Vero C1008
quantityKind: selectivity ratio

Identify the reported selectivity ratio for the following entry. `Nc1ncnn2c([C@@H]3N[C@H](CO)[C@@H](O)[C@H]3O)ccc12`
80

---

- experiment: Selectivity index, ratio of CC50 for cytotoxicity against African green monkey Vero 76 cells infected with La Crosse virus assessed as reduction in cell viability by visual analysis to EC50 for antiviral activity against La Crosse virus infected in African green monkey Vero 76 cells assessed as reduction in viral replication by visual analysis
- Format: toxicity, cell-based
- details: read-out: Ratio CC50/EC50
quantityKind: selectivity ratio

Specify measured selectivity ratio for `Nc1ncnn2c([C@@H]3N[C@H](CO)[C@@H](O)[C@H]3O)ccc12` .
> 240

---

Kindly supply the reported CC50 values for the records listed here.
- experiment: Cytotoxicity against African green monkey Vero 76 cells infected with Rift valley fever virus assessed as reduction in cell viability by visual analysis
- Assay type: toxicity, cell-based
- details: chlorocebus sabaeus
Give just the numeric value; µM need not be written.

Item `Nc1ncnc2c([C@@H]3N[C@H](CO)[C@@H](O)[C@H]3O)n[nH]c12` : provide CC50
8.3

Please give the documented CC50 of `Nc1ncnn2c([C@@H]3N[C@H](CO)[C@@H](O)[C@H]3O)ccc12`
10

---

- experiment: Cytotoxicity against dog MDCK cells infected with Influenza B virus assessed as reduction in cell viability by visual analysis
- Format: toxicity, cell-based, Canis lupus familiaris
quantityKind: CC50 (µM)
Record the value in µM, omitting the unit from your answer.

Complete the entry with CC50 for `Nc1ncnn2c([C@@H]3N[C@H](CO)[C@@H](O)[C@H]3O)ccc12`
12

---

- experiment: Cytotoxicity against African green monkey Vero E6 cells infected with JUNV assessed as reduction in cell viability by neutral red dye based analysis
- Format: toxicity, Vero C1008
- details: chlorocebus sabaeus
quantityKind: CC50 (µM)
// note: answer is a bare numeric in µM

Return CC50 (reported value) for this molecule: `Nc1ncnn2c([C@@H]3N[C@H](CO)[C@@H](O)[C@H]3O)ccc12`
9.6

---

- experiment: Cytotoxicity against African green monkey Vero 76 cells infected with MERS-CoV assessed as reduction in cell viability by neutral red dye based analysis
- Assay type: toxicity
- details: chlorocebus sabaeus
quantityKind: CC50 (µM)
Write the number in µM without appending the unit.

Determine its reported CC50: `Nc1ncnn2c([C@@H]3N[C@H](CO)[C@@H](O)[C@H]3O)ccc12`
4.4

Give the value of CC50 reported for the following: `CC(C)OC(=O)[C@H](C)N[P@](=O)(OC[C@H]1N[C@@H](c2ccc3c(N)ncnn23)[C@H](O)[C@@H]1O)Oc1ccccc1`
68

---

- experiment: Selectivity index, ratio of CC50 for cytotoxicity against African green monkey Vero E6 cells infected with Oropouche virus assessed as reduction in cell viability by visual analysis to EC50 for antiviral activity against Oropouche virus infected in African green monkey Vero E6 cells assessed as reduction in viral replication by visual analysis
- Assay type: toxicity, cell-based, Vero C1008
- details: read-out: Ratio CC50/EC50
quantityKind: selectivity ratio
Give your answer as a number; write no unit.

Supply recorded selectivity ratio for `Nc1ncnn2c([C@@H]3N[C@H](CO)[C@@H](O)[C@H]3O)ccc12` here.
62

---

- experiment: Cytotoxicity against African green monkey Vero 76 cells infected with Rift valley fever virus assessed as reduction in cell viability by neutral red dye based analysis
- Format: toxicity
- details: chlorocebus sabaeus
quantityKind: CC50

Quick one: give measured CC50 for `Nc1ncnn2c([C@@H]3N[C@H](CO)[C@@H](O)[C@H]3O)ccc12`
8.9 µM

Give me measured CC50, please, for this molecule: `CC(C)OC(=O)[C@H](C)N[P@](=O)(OC[C@H]1N[C@@H](c2ccc3c(N)ncnn23)[C@H](O)[C@@H]1O)Oc1ccccc1`
> 32 µM

Answer with reported CC50 of `Nc1ncnc2c([C@@H]3N[C@H](CO)[C@@H](O)[C@H]3O)c[nH]c12`
> 100 µM

Name the recorded CC50 of the molecule listed here: `CC(C)OC(=O)[C@H](C)N[P@](=O)(OC[C@H]1N[C@@H](c2c[nH]c3c(N)ncnc23)[C@H](O)[C@@H]1O)Oc1ccccc1`
> 100 µM

Provide one value: measured CC50 of `Nc1ncnc2c([C@@H]3N[C@H](CO)[C@@H](O)[C@H]3O)n[nH]c12`
> 100 µM

---

- experiment: Cytotoxicity against dog MDCK cells infected with Influenza A virus H1N1
- Format: toxicity, cell-based, Canis lupus familiaris
quantityKind: CC50

Given the compound `NC(=O)c1ncn([C@@H]2O[C@H](CO)[C@@H](O)[C@H]2O)n1` , write its reported CC50.
> 1000 µM

---

- experiment: Cytotoxicity against dog MDCK cells infected with Influenza A virus H1N1 assessed as reduction in cell viability by neutral red dye based assay
- Assay type: toxicity, Canis lupus familiaris
quantityKind: CC50

Please supply the value of reported CC50 for the item `Nc1ncnc2c([C@@H]3N[C@H](CO)[C@@H](O)[C@H]3O)c[nH]c12`
> 100 µM

Tell me measured CC50 for `Nc1ncnc2c([C@@H]3N[C@H](CO)[C@@H](O)[C@H]3O)n[nH]c12` please.
> 100 µM

State its CC50: `CC(C)OC(=O)[C@H](C)N[P@](=O)(OC[C@H]1N[C@@H](c2ccc3c(N)ncnn23)[C@H](O)[C@@H]1O)Oc1ccccc1`
> 32 µM

Given the compound `Nc1ncnn2c([C@@H]3N[C@H](CO)[C@@H](O)[C@H]3O)ccc12` , write its reported CC50.
3 µM

Report CC50, nothing else, for this compound: `CC(C)OC(=O)[C@H](C)N[P@](=O)(OC[C@H]1N[C@@H](c2c[nH]c3c(N)ncnc23)[C@H](O)[C@@H]1O)Oc1ccccc1`
> 100 µM

---

- experiment: Cytotoxicity against dog MDCK cells infected with Influenza A virus H7N9 assessed as reduction in cell viability by neutral red dye based analysis
- Assay type: toxicity, Canis lupus familiaris
quantityKind: CC50 (µM)
// units = µM; emit number, no label

Quote CC50 reported for `Nc1ncnn2c([C@@H]3N[C@H](CO)[C@@H](O)[C@H]3O)ccc12` please.
30

---

- experiment: Cytotoxicity against African green monkey Vero E6 cells infected with Rift Valley fever virus assessed as reduction in cell viability
- Assay type: toxicity, cell-based, Vero C1008
- details: chlorocebus sabaeus
quantityKind: CC50 (µM)
Numeric only. Scale: µM

Specify reported CC50 for the compound shown: `Nc1ncnn2c([C@@H]3N[C@H](CO)[C@@H](O)[C@H]3O)ccc12`
8.6

---

- Tested on: Punta Toro virus
- experiment: Antiviral activity against Punta Toro virus infected in African green monkey Vero 76 cells assessed as inhibition of viral replication by neutral red dye based analysis
- Type: functional, organism-based
quantityKind: pEC50
Value format note: pEC50 is -log10 of concentration (mol/L); just state the number.

Using the record for `Nc1ncnn2c([C@@H]3N[C@H](CO)[C@@H](O)[C@H]3O)ccc12` , state its measured pEC50.
6.57

---

- experiment: Selectivity index, ratio of CC50 for cytotoxicity against dog MDCK cells infected with Influenza A virus H1N1 assessed as reduction in cell viability by visual analysis to EC50 for antiviral activity against Influenza A virus H1N1 infected in dog MDCK cells assessed as reduction in virus-induced cytopathic effect by visual analysis
- Assay type: toxicity, cell-based
- details: read-out: Ratio CC50/EC50
quantityKind: selectivity ratio
Just the number, please, no unit after it.

Look up selectivity ratio of `Nc1ncnn2c([C@@H]3N[C@H](CO)[C@@H](O)[C@H]3O)ccc12` and report it.
57

---

- experiment: Selectivity index, ratio of CC50 for cytotoxicity against African green monkey Vero cells infected with DENV-2 assessed as reduction in cell viability by neutral red analysis to EC50 for antiviral activity against DENV-2 infected in human Huh-7 cells assessed as reduction in virus-induced cytopathic effect by neutral red analysis
- Assay type: toxicity, cell-based
- details: read-out: Ratio CC50/EC50
quantityKind: selectivity ratio
Write no unit; give the number alone.

Look up and state reported selectivity ratio for `Nc1ncnc2c([C@@H]3N[C@H](CO)[C@@H](O)[C@H]3O)n[nH]c12`
3.5

---

- experiment: Selectivity index, ratio of CC50 for cytotoxicity against human Huh-7 cells infected with Yellow fever virus assessed as reduction in cell viability by visual analysis to EC50 for antiviral activity against Yellow fever virus infected in human Huh-7 cells assessed as reduction in virus-induced cytopathic effect by visual analysis
- Assay type: toxicity, cell-based
- details: read-out: Ratio CC50/EC50
quantityKind: selectivity ratio
The answer should be a number; do not append a unit.

Using the record for `Nc1ncnn2c([C@@H]3N[C@H](CO)[C@@H](O)[C@H]3O)ccc12` , state its measured selectivity ratio.
8.6

# credit: ChEMBL document CHEMBL5257097
